- Experimental system: CCK-B (Cavia porcellus)
- Construct: guinea pig brain (CCK-B); from tissue; host or cells: guinea pig brain
- Sequence (H0VZC5 1-426): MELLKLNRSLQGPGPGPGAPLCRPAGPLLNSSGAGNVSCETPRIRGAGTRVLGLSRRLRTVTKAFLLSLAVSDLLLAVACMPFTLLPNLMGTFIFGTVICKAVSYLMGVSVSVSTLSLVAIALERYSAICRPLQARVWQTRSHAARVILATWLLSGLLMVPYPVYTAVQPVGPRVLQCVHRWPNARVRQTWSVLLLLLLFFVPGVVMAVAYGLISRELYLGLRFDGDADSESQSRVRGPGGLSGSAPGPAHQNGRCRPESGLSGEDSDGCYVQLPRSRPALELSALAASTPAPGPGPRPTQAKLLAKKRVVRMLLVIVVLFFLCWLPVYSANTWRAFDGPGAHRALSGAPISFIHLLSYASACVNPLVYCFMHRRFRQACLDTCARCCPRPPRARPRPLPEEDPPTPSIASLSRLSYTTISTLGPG
- Experimental protocol: displacement of specific 125I-CCK from guinea pig brain (CCK-B receptor binding)
- Applied conditions: read-out: CCK RECEPTOR BINDING RESULTS IC50 125I-CCK Brain
Structures can show the parent of a compound that is named as a salt.
Readout type: IC50 (µM)

Reference set (6 entries):
Molecule: CN1C(=O)C(NC(=O)Nc2ccc3c(c2)CCC3)N=C(N2CCC(C)(C)CC2)c2ccccc21 (racemic) [Example 4]
Unit abbrev: µM
IC50: 0.00119
--
Molecule: Cc1cccc(NC(=O)NC2N=C(N3CCC(C)(C)CC3)c3ccccc3N(CC(F)(F)F)C2=O)c1 (single isomer, unassigned) [28 (enantiomer B)]
Unit abbrev: µM
IC50: 0.281
--
Molecule: Cc1cccc(NC(=O)NC2N=C(N(C)C3CCCCCC3)c3ccccc3N(C)C2=O)c1 (single isomer, unassigned; (+)) [Example 68, Hydrochloride]
Unit abbrev: µM
IC50: 0.0266
--
Molecule: CN1C(=O)C(NC(=O)Nc2cccc(C(F)(F)F)c2)N=C(N2CC3CCC(CC3)C2)c2ccccc21 (single isomer, unassigned; (+)) [Example 56, Hydrochloride]
Unit abbrev: µM
IC50: 0.047
--
Molecule: Cc1cccc(NC(=O)NC2N=C(N3CCC(C)CC3)c3ccccc3N(C)C2=O)c1 (single isomer, unassigned) [8 (enantiomer A)]
Unit abbrev: µM
IC50: 0.00035
--
Molecule: CCCN1C(=O)C(NC(=O)Nc2cccc(C)c2)N=C(N(C)C2CCCCC2)c2ccccc21 (racemic) [Example 60]
Unit abbrev: µM
IC50: 0.00256

I: CC(C)CN1C(=O)C(NC(=O)c2cc3ccccc3[nH]2)N=C(N2CCCCCC2)c2ccccc21 (racemic)
II: CCN1C(=O)C(NC(=O)Nc2cccc(C)c2)N=C(N2CCC(C)(C)CC2)c2ccccc21 (single isomer, unassigned)
Query string: // which entry has the larger IC50 value, I or II ? Mark your selection by writing its label.
Result string: I
(I: 0.225 µM, II: 0.00036 µM)
